- MEASURED_TARGET: human MGL from HeLa cells (Homo sapiens (Human), UniProt Q99685)
- Sequence (Q99685 whole entry): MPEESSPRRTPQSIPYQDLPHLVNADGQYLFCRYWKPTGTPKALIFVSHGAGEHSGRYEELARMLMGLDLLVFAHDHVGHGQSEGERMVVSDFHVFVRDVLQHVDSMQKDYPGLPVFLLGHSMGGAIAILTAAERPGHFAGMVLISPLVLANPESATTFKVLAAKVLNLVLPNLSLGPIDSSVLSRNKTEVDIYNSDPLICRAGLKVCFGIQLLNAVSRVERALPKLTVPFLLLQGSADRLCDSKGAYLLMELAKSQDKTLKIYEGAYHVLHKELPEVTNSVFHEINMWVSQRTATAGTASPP
- METHOD_DESCRIPTION: MGL in vitro activity assay: cleavage of [glycerol-1,3-3H]-oleyl glycerol, activated carbon filtration
- TEST_SETTINGS: 300 nM [Glycerol-1,3-3H]-oleyl glycerol, endogenously expressed MGL from HeLa cells, one hour incubation
ATTRIBUTE_MEASURED: IC50 (nM)

COMPOUND | MEASURED_TARGET | ATTRIBUTE_MEASURED | RESULT_NUMBER
COc1cccc(C(=O)N2[C@@H]3CCC[C@H]2c2nn(C)c(-c4cc(C)nn4C)c2C3)c1C (stereo in doubt) | human MGL from HeLa cells (Homo sapiens (Human), UniProt Q99685) | IC50 | 230
Cn1nc(C(F)(F)F)cc1-c1c2c(nn1C)[C@@H]1CCC[C@H](C2)N1C(=O)c1nn(C)c2ccc(F)cc12 | human MGL from HeLa cells (Homo sapiens (Human), UniProt Q99685) | IC50 | 18

1: C[C@H]1c2nn(C)c(-c3cc(C(F)(F)F)n(C)n3)c2CCN1C(=O)c1cccc2cnn(C)c12
2: C[C@H]1c2nn(C)c(-c3cn(C)nc3C(F)(F)F)c2CCN1C(=O)c1ccc2c(c1)OCCC2
3: C[C@H]1c2nn(C)c(-c3cnn(C)c3C(F)(F)F)c2CCN1C(=O)c1ccnc2c1cnn2C
4: COc1cccc(C(=O)N2CCc3c(nn(C)c3-c3cc(C(F)(F)F)nn3C)[C@@H]2C)c1Cl
5: Cc1ccc2nc(C)cc(C(=O)N3CCc4c(nn(C)c4-c4cc(C(F)(F)F)nn4C)[C@@H]3C)c2c1
Thanks in advance: please rank these 5 entries by IC50, highest to lowest. Use the labels to give the requested order.
2, 3, 1, 5, 4
(2: 7180 nM, 3: 4560 nM, 1: 160 nM, 5: 90 nM, 4: 25 nM)

====

- MEASURED_TARGET: human MGL from HeLa cells (Homo sapiens (Human))
- METHOD_DESCRIPTION: MGL in vitro activity assay: cleavage of [glycerol-1,3-3H]-oleyl glycerol, activated carbon filtration
- TEST_SETTINGS: 300 nM [Glycerol-1,3-3H]-oleyl glycerol, endogenously expressed MGL from HeLa cells, one hour incubation
ATTRIBUTE_MEASURED: IC50 (nM)

MOLECULE | ATTRIBUTE_MEASURED | RESULT_NUMBER
Cc1cccn2ncc(C(=O)N3CCc4c(nn(C)c4-c4cc(C(F)(F)F)nn4C)[C@@H]3C)c12 [Example 7] | IC50 | 50
Cc1cc(C(=O)N2CCc3c(nn(C)c3-c3cc(C(F)(F)F)nn3C)[C@@H]2C)c2cc(F)ccc2n1 [Example 10] | IC50 | 18

1: C[C@H]1c2nn(C)c(-c3cc(C(F)(F)F)nn3C)c2CCN1C(=O)c1ccccc1C(F)(F)F [Example 29]
2: C[C@H]1c2nn(C)c(-c3cnn(C)c3C(F)(F)F)c2CCN1C(=O)c1ccnc2c1ccn2C [Example 52]
3: COc1cccc(C(=O)N2CCc3c(nn(C)c3-c3cc(C(F)(F)F)n(C)n3)[C@@H]2C)c1Cl [Example 48]
4: COc1ccc2nc(C)cc(C(=O)N3CCc4c(nn(C)c4-c4cc(C(F)(F)F)nn4C)[C@@H]3C)c2c1 [Example 26]
5: C[C@H]1c2nn(C)c(-c3cc(C(F)(F)F)n(C)n3)c2CCN1C(=O)c1ccc2ncccc2c1 [Example 63]
In this exercise, place the 5 molecules in ascending sequence of their recorded IC50. Please list the labels in the order you were asked to rank them.
3, 5, 1, 2, 4

====

- MEASURED_TARGET: human MGL from HeLa cells (Homo sapiens (Human), UniProt Q99685)
- METHOD_DESCRIPTION: MGL in vitro activity assay: cleavage of [glycerol-1,3-3H]-oleyl glycerol, activated carbon filtration
- TEST_SETTINGS: 300 nM [Glycerol-1,3-3H]-oleyl glycerol, endogenously expressed MGL from HeLa cells, one hour incubation
ATTRIBUTE_MEASURED: IC50 (nM)

Some entries whose results are on file:
MOLECULE_SMILES | IC50, nM
C[C@H]1c2nn(C)c(-c3cnn(C)c3C(F)(F)F)c2CCN1C(=O)c1cccc2cnn(C)c12 | 10000
C[C@H]1c2nn(C)c(-c3cc(C(F)(F)F)nn3C)c2CCN1C(=O)c1ccc(OC(F)(F)F)cc1Cl | 9900
C[C@H]1c2nn(C)c(-c3cc(C(F)(F)F)nn3C)c2CCN1C(=O)c1cc(F)ccc1-n1cccn1 | 380
COc1cc(C)ccc1C(=O)N1CCc2c(nn(C)c2-c2cc(C(F)(F)F)nn2C)[C@@H]1C | 62

A: Cc1ccc2c(F)c(C(=O)N3CCc4c(nn(C)c4-c4cc(C(F)(F)F)nn4C)[C@@H]3C)ccc2n1
B: C[C@H]1c2nn(C)c(-c3cc(C(F)(F)F)nn3C)c2CCN1C(=O)c1cnc2ncsc2c1
C: COc1nccc(C(=O)N2CCc3c(nn(C)c3-c3cc(C(F)(F)F)n(C)n3)[C@@H]2C)c1C
Exam item: list the entries in increasing order of IC50. Answer format: the labels, ordered as requested.
C, A, B
(C: 83 nM, A: 230 nM, B: 950 nM)

====

- MEASURED_TARGET: human MGL from HeLa cells (Homo sapiens (Human), UniProt Q99685)
- METHOD_DESCRIPTION: MGL in vitro activity assay: cleavage of [glycerol-1,3-3H]-oleyl glycerol, activated carbon filtration
- TEST_SETTINGS: 300 nM [Glycerol-1,3-3H]-oleyl glycerol, endogenously expressed MGL from HeLa cells, one hour incubation
ATTRIBUTE_MEASURED: IC50 (nM)

Use the examples below as a reference point.
COMPOUND | UNIT_TAG | IC50
C[C@H]1c2nn(C)c(-c3cnn(C)c3C(F)(F)F)c2CCN1C(=O)c1nn(C)c2cc(F)cc(F)c12 | nM | 1170
COc1cc(C)cc(C(=O)N2[C@@H]3CCC[C@H]2c2nn(C)c(-c4cc(C(F)(F)F)nn4C)c2C3)c1 (stereo in doubt) | nM | 26

a: C[C@H]1c2nn(C)c(-c3cc(C(F)(F)F)n(C)n3)c2CCN1C(=O)c1ccnc2c1ccn2C
b: C[C@H]1c2nn(C)c(-c3cnn(C(F)(F)F)c3)c2CCN1C(=O)c1ccc2ncccc2c1
Identify the entry with the smaller IC50: a or b . Return value: the label identifying the chosen record.
a
(a: 3.2 nM, b: 79 nM)

====

- MEASURED_TARGET: human MGL from HeLa cells (Homo sapiens (Human), UniProt Q99685)
- METHOD_DESCRIPTION: MGL in vitro activity assay: cleavage of [glycerol-1,3-3H]-oleyl glycerol, activated carbon filtration
- TEST_SETTINGS: 300 nM [Glycerol-1,3-3H]-oleyl glycerol, endogenously expressed MGL from HeLa cells, one hour incubation
ATTRIBUTE_MEASURED: IC50 (nM)

MOLECULE_SMILES | IC50, nM
C[C@H]1c2nn(C)c(-c3cc(C(F)(F)F)nn3C)c2CCN1C(=O)c1ccnc2c1ccn2C | 5.7
Cc1ccc2c(C)c(C(=O)N3CCc4c(nn(C)c4-c4cc(C(F)(F)F)nn4C)[C@@H]3C)ccc2n1 | 380
C[C@H]1c2nn(C)c(-c3cnn(-c4ccccn4)c3)c2CCN1C(=O)c1ccc2ncccc2c1 | 1230

a: Cc1ccc(C(=O)N2CCc3c(nn(C)c3-c3cc(C(F)(F)F)nn3C)[C@@H]2C)c(OC(F)(F)F)c1
b: C[C@H]1c2nn(C)c(-c3ccnn3CC3CC3)c2CCN1C(=O)c1ccc2ncccc2c1
c: Cc1cc(C(=O)N2CCc3c(nn(C)c3-c3cc(C(F)(F)F)nn3C)[C@@H]2C)c2ccccc2n1
Your job: order these 3 records by IC50, ascending. To answer, arrange all of the labels according to the requested order.
c, a, b

====

- MEASURED_TARGET: human MGL from HeLa cells (Homo sapiens (Human), UniProt Q99685)
- METHOD_DESCRIPTION: MGL in vitro activity assay: cleavage of [glycerol-1,3-3H]-oleyl glycerol, activated carbon filtration
- TEST_SETTINGS: 300 nM [Glycerol-1,3-3H]-oleyl glycerol, endogenously expressed MGL from HeLa cells, one hour incubation
ATTRIBUTE_MEASURED: IC50 (nM)
Just the number please, in nM, no unit attached.

Tell me the measured IC50 of Cc1ccc2c(C(=O)N3[C@@H]4CCC[C@H]3c3nn(C)c(-c5cc(C(F)(F)F)nn5C)c3C4)nccc2n1 , please.
74

What would you report for Cn1nc(-c2c3c(nn2C)[C@@H]2CCC[C@H](C3)N2C(=O)c2ccc3ncccc3c2)cc1C(F)(F)F ?
17

What do you get for Cn1nc(C(F)(F)F)cc1-c1c2c(nn1C)[C@@H]1CCC[C@H](C2)N1C(=O)c1ccc2c(c1)OCCC2 (stereo in doubt) ?
44

Values compiled from patent US11891387B2.
